molecular target: human TOR (Homo sapiens, UniProt P42345); construct: FLAG; test: mTOR enzyme assay (DELFIA, His6-S6K substrate); format: biochemical; conditions: read-out: mTOR Kinase Avg. IC50
MEASURED_QUANTITY: pIC50
Scale: pIC50 equals -log10([C]), with [C] in mol/L.

Given the compound COc1ccc2c(c1)c(C=C1Oc3cc(O)cc(O)c3C1=O)c(C)n2CCCN(C)C [Example 106] , what is its reported pIC50? 6.93

Same question for Cn1cc(C=C2Oc3cc(O)cc(O)c3C2=O)c2c(Br)cccc21 [Example 253] please. 5.48

Same question for O=C1C(=Cc2c(-c3cccc(O)c3)[nH]c3ccccc23)Oc2cc(O)cc(O)c21 [Example 205] please. 6.96

Same question for CCn1c(C)c(/C=C2\Oc3ccc(NC(=O)Nc4ccc(OCCCNC)cc4)cc3C2=O)c2cc(OC)ccc21 [Compound 683] please. 7.04
